These entries and their values trace back to ChEMBL document CHEMBL1201862.

Test system: A549
assay procedure: NCI tumour cell line growth inhibition, 48 h
The source made the active and inactive calls. Cut-off read from the data, not from the text of the source: active = GI50 up to about 1.1 µM and inactive = higher.
Pick from 1 = active, -1 = inactive when you respond.

[[record]]
molecule = "N=c1oc2c(Cl)cc(Cl)cc2cc1C(=O)Nc1ccccn1"
system_tested = "A549"
assigned_class = -1

[[record]]
molecule = "CCCCCCCCCCCCCC(=O)O.O=CC(O)C(O)C(OC1OC(CO)C(O)C(O)C1O)C(O)CO (configuration not stated)"
system_tested = "A549"
assigned_class = -1


Outcome logged for "CC1=CC[C@](C)(O)[C@@]2(C)CC[C@H]3C(=C(C)C)C(=O)C[C@]3(C)C[C@H]12" in this assay:
-1

Outcome logged for "C#C[C@]1(O)[C@@H](CO)O[C@@H](n2ccc(=O)[nH]c2=O)[C@@H]1O" in this assay:
1

Outcome logged for COC(=O)c1ccccc1C1CN=NC12Cc1ccc3ccccc3c1C2=O (configuration not stated) in this assay:
-1

Outcome logged for "O=c1[nH]c2ccccc2c2oc(-c3ccccc3)nc12" in this assay:
-1

Outcome logged for "Cn1c2cc(Cl)ccc2c2ccc3c(c21)C(=O)C=CC3=O" in this assay:
-1

Outcome logged for "O=[N+]([O-])c1ccc(C2=Nn3c(nnc3-c3ccc(Cl)cc3)SC2)o1" in this assay:
-1

Outcome logged for "Cc1cc2c3c(c1)S(=O)(=O)c1cc(Cl)ccc1N3CCC2" in this assay:
-1

Outcome logged for O=C1C2=C(c3ccccc31)C(c1ccc([N+](=O)[O-])cc1)NC(S)=N2 (configuration not stated) in this assay:
-1

---

System: HCT-15
Peptide text beside a SMILES is read from it. * marks the point of attachment. Boc = CC(C)(C)OC(=O)*; OBn = c1ccc(CO*)cc1
Hi! Could you tag entries with GI50 below 8 µM as Fulfilled, and those at or above as Not fulfilled? Much appreciated.

[[record]]
compound = "Nc1ccc2c(c1)C(=O)N(OS(=O)(=O)c1ccccc1)C2=O"
system_tested = "HCT-15"
assigned_class = "Not fulfilled"

[[record]]
compound = "COc1c(C)n(CCO)ccc1=O"
system_tested = "HCT-15"
assigned_class = "Not fulfilled"

[[record]]
compound = "Cc1ccc(CC(C)N)cc1 (stereo not given)"
system_tested = "HCT-15"
assigned_class = "Not fulfilled"

[[record]]
compound = "CC(C)CC(NC(=O)OC(C)(C)C)C(=O)NC(CC(=O)OCc1ccccc1)C(N)=O (stereo not drawn) (Boc-Leu-Asp(OBn)-NH2; configuration not given here)"
system_tested = "HCT-15"
assigned_class = "Not fulfilled"

[[record]]
compound = "CN1C=COC1N=C1CCCCC1 (stereo not given)"
system_tested = "HCT-15"
assigned_class = "Not fulfilled"

[[record]]
compound = "O=C1C=C(Nc2ccc(Cl)cc2Cl)c2ccccc2C1=O"
system_tested = "HCT-15"
assigned_class = "Not fulfilled"


Determine if "COC(=O)c1cn(CCCCO)nn1" shows GI50 strictly lower than 8 µM.
Not fulfilled

Determine if "CN(C)C(=S)/N=c1\ssc(=S)n1Cc1ccccc1" shows GI50 strictly lower than 8 µM.
Fulfilled

---

Below, each entry is listed alongside its reported GI50.
System: M14
assay procedure: NCI tumour cell line growth inhibition, 48 h
The source made the active and inactive calls. Cut-off read from the data, not from the text of the source: active = GI50 up to about 1.1 µM and inactive = higher.

// known answers, use as guide
[[record]]
compound = "N#CC1(C#N)NC(c2ccsc2)C(C#N)(C#N)NC1c1ccsc1 (stereo unspecified)"
property = "GI50"
experimental_value = "> 100 µM (inactive)"

[[record]]
compound = "COc1cc2nc(-c3cccc(N(C)C)c3)cc(O)c2cc1OC"
property = "GI50"
experimental_value = "2.07 µM (inactive)"

[[record]]
compound = "CC[n+]1[b-](C(C)(C)C)n(/N=C(\\C)C(C)(C)C)[b-](C(C)(C)C)[n+]1CC"
property = "GI50"
experimental_value = "> 100 µM (inactive)"

[[record]]
compound = "Cc1n[nH]c(=O)n1/N=C/c1ccco1"
property = "GI50"
experimental_value = "> 100 µM (inactive)"


Please report GI50 for the following compound: "Fc1ccccc1-c1nn2c(C34CC5CC(CC(C5)C3)C4)nnc2s1"
> 100 µM (inactive)

Please report GI50 for the following compound: Cc1cc(Cl)ccc1NC1=NC(=O)C(CC(=O)Nc2ccc(Cl)cc2Cl)S1 (stereo unspecified)
> 100 µM (inactive)
